The reported measurements were obtained from the array DNA melting data of Ke et al. (doi:10.1101/2024.01.08.574731).

# folding enthalpy per record follows
- ASSAY OVERVIEW: folding enthalpy; higher = less favourable; fluorescence melt of hairpins on a sequencing array, two-state fit
- TEST CONDITIONS: sodium 0.088 M

>  <RESIDUES>
GCGAACGAAAGTTACGC ((((((....))).)))

>  <SCALE UNIT>
kJ/mol

>  <folding enthalpy>
-94.9

$$$$
>  <RESIDUES>
GATCATGGTCATGATC ((((((....))))))

>  <SCALE UNIT>
kJ/mol

>  <folding enthalpy>
-159

$$$$
>  <RESIDUES>
GGATACGAAAGTAGTCC ((((((....))).)))

>  <SCALE UNIT>
kJ/mol

>  <folding enthalpy>
-86

$$$$
